Sourced from paper PMC10916382

Experiment: in vitro
This section presents compounds with their documented viability at 48 h, 5 µM values.
MEASURED METRIC: viability at 48 h, 5 µM (%)

INSERT INTO results (compound, reported_value) VALUES
  ('CCc1ccc2c(c1)N(CC(C)CN(C)C)c1ccccc1S2 (centres unmarked)', 108),
  ('CN(C)CCOC1=Cc2ccccc2Sc2ccc(Cl)cc21 [zotepine]', 98.1),
  ('c1ccc2c(c1)Sc1ccccc1N2CC1CN2CCC1CC2 (centres unmarked)', 110),
  ('CC(C)(C)NC[C@H](O)COc1ccccc1C1CCCC1', 101),
  ('OCCN1CCN(CC/C=C2/c3ccccc3Sc3ccc(Cl)cc32)CC1', 110);

====

Test: in vitro
Details: Anti-SARS-CoV-2 screening on Calu-3 cells: viability [% of control], Calu-3 cells
MEASURED METRIC: viability (%)

INSERT INTO results (compound, measured_metric, reported_value) VALUES
  ('COc1cccc(CCc2ccccc2OCC[C@@H]2C[C@@H](O)CN2C)c1', 'viability', 102),
  ('Cc1nc(Nc2ncc(N3CCN(C)[C@H](C)C3)c(Nc3cc(C)n(C)n3)n2)cc(C2CC2)c1F', 'viability', 114),
  ('CCN(CC)CCOc1ccc(-c2nc3cc(Cl)ccc3s2)cc1', 'viability', 88.8),
  ('CCCCc1oc2ccc(C(=O)OC(C)C)cc2c1C(=O)c1ccc(CCCN(CCCC)CCCC)cc1', 'viability', 87.8),
  ('CCCCCCOC(=O)NC(=N)c1ccc(NCc2nc3cc(C(=O)N(CCC(=O)OCC)c4ccccn4)ccc3n2C)cc1', 'viability', 106),
  ('CN(C)CCC=C1c2ccccc2C(C)(C)c2ccccc21', 'viability', 93),
  ('CNCc1ccc(OC)c([C@]2(N3CCC[C@H]3c3ncco3)C(=O)N(S(=O)(=O)c3ccc(OC)cc3)c3ccc(Cl)cc32)c1', 'viability', 117),
  ('COc1cc2c(cc1NS(=O)(=O)c1ccc(-c3ccc(Cl)s3)cc1)CCN(C)CC2', 'viability', 92.9),
  ('Oc1ccc2c(c1)OC[C@@H](c1ccccc1)[C@H]2c1ccc(OCCN2CCCC2)cc1', 'viability', 101),
  ('Cn1cc(C2=C(c3c4n(c5ccccc35)CCC(CN)C4)C(=O)NC2=O)c2ccccc21 (stereo not shown)', 'viability', 95.9);
